# System: SH-SY5Y cells
# Settings: PKIS2 primary screening, DQ Red BSA spot count
Assign labels as follows, please: MET for DQ Spot below 90; NOT MET for DQ Spot equal to or exceeding 90.

# Molecule, Assigned label
records = [
    ("Cc1ccc(O)cc1Nc1ccnc2ccc(C(C)(C)C)cc12 [UNC10225479A]", "MET"),
    ("Fc1cccc(COc2ccc(Nc3ncnc4nn5ccccc5c34)cc2Cl)c1 [UNC10225319A]", "NOT MET"),
    ("COc1ccc(Nc2nccc(N3CCC(NC(=O)C(C)c4ccc(Cl)cc4)C3)n2)cc1 (stereo not drawn)", "NOT MET"),
    ("CC(C)c1ccc(O)cc1Nc1ccnc2ccc(C(F)(F)F)cc12 [UNC10225322A]", "NOT MET"),
    ("Oc1ccc2ncnc(Nc3ccc(OCc4ccccc4)cc3)c2c1 [UNC10225360A]", "NOT MET"),
    ("Fc1ccc(-c2nn3cccc(F)c3c2-c2ccncc2)cc1 [UNC10225116A]", "NOT MET"),
    ("COC(=O)C(Cc1ccccc1)NC(=O)NC1CCN(c2ccnc(Nc3ccc(F)cc3)n2)C1 (stereo not drawn)", "NOT MET"),
    ("Fc1ccc(-c2nn3c(OCC(F)(F)F)cccc3c2-c2ccncc2)cc1 [UNC10225249A]", "NOT MET"),
    ("Nc1nccc2scc(-c3ccc4c(c3)CCN4C(=O)Cc3ccccc3)c12 [UNC10225119A]", "MET"),
    ("CCS(=O)(=O)c1ccc(OC)c(Nc2ncc(-c3ccc(F)cc3)o2)c1", "NOT MET"),
    ("CCCc1ccc(S(=O)(=O)NC2CCN(c3ccnc(Nc4ccc(F)cc4)n3)C2)cc1 (stereo not drawn)", "NOT MET"),
    ("COC(=O)Nc1nc2ccc(Oc3ccc(CC(=O)Nc4cc(C(F)(F)F)ccc4F)cc3)cc2[nH]1", "MET"),
    ("Clc1ccc(-c2cc(-c3c[nH]nc3-c3ccccn3)ccn2)cc1 [UNC10225057A]", "NOT MET"),
    ("Cn1cncc1-c1ccc2ncnc(Nc3ccc(OCc4ccccc4)cc3)c2c1 [UNC10225497A]", "MET"),
    ("O=C(NCCNc1ccnc(NCc2ccc(F)cc2)n1)c1cc2ccccc2s1", "NOT MET"),
    ("COc1ccc2nc(-c3cccc(C)n3)nc(Nc3ccncc3)c2c1", "NOT MET"),
]

---

# Tested on: SH-SY5Y cells
# Run description: Chemotype enrichment analysis of PKIS2 primary screen hit categories

# Compound, Outcome
measured = [
    ("Nc1n[nH]c2ncc(-c3ccccc3)cc12", "DQ Only"),
    ("CCCC(=O)Nc1n[nH]c2ncc(-c3cccc4ccccc34)cc12", "TOXIC"),
    ("O=C1NC(=O)C(N2CCc3ccccc32)=C1c1ccccc1Cl [UNC10225255A]", "DQ Only"),
]

---

# Tested on: SH-SY5Y cells
# Run description: Nuclear count from microscopy images (cellular growth and toxicity); further: reference of the scale not given here
# Settings: PKIS2 primary screening
Threshold rule: Nuclear Count greater than or equal to 100 is condition met; below that, condition not met.

# Compound, Assigned label
records = [
    ("CC(C)(C)c1ccc2nccc(Nc3cccc(O)c3)c2c1 [UNC10225361A]", "condition not met"),
    ("COc1ccc(NC(=O)c2ccoc2)cc1-c1ccc(C(=O)NCC2CC2)cc1 [UNC10225046A]", "condition met"),
    ("CCn1c(-c2nonc2N)nc2c(C#CC(C)(C)O)nc(OCCN)cc21.Cl.Cl [UNC10225460A]", "condition not met"),
    ("COc1ccc2cc(-c3nc(-c4ccccc4C(C)C)[nH]c3-c3ccncc3)ccc2c1 [UNC10225291A]", "condition met"),
    ("CN(C)S(=O)(=O)c1cc(-c2ccc3nccc(-c4cccc(S(N)(=O)=O)c4)c3c2)cnc1N [UNC10225457A]", "condition not met"),
    ("CN(C)c1cc(-c2ccc3c(N)n[nH]c3c2)nc(N)n1", "condition not met"),
    ("Cc1cc(N2CCC(NS(=O)(=O)c3ccc(F)cc3)CC2)nc(Nc2cccc(C#N)c2)n1", "condition not met"),
]
